Test: NCI Yeast Anticancer Drug Screen. Data for the bub3 strain (AID 167)
Conditions: S. cerevisiae bub3 mutant strain, at 50.0 µM (retest, dose inferred, filed as 5.0)
Compounds without any hit were thinned out: in the full panel of roughly 79,000, 15% have a hit. Active and inactive are the calls of the source. Cut-off read from the data, not from the text of the source: active = growth inhibition above about 70%; inactive = the rest.
Your reply should match one of these outcome classes. active, inactive

[
  {
    "compound": "Cc1ccc(S(=O)(=O)NCCSS(=O)(=O)c2ccc(C)cc2)cc1",
    "label": "active"
  },
  {
    "compound": "CCCCCCCC1(N=[N+]=[N-])C(=O)c2ccccc2N(C)C1=O (stereo unspecified)",
    "label": "active"
  },
  {
    "compound": "NC(=O)NN=C(CS)CS",
    "label": "inactive"
  }
]

# input Lab log entry: `CSC(=S)Nc1cc(C)ccn1` — outcome as called in the assay?
# output active

# input Lab log entry: `O=C1c2cc([N+](=O)[O-])ccc2-c2cccc(F)c21` — outcome as called in the assay?
# output inactive

# input Lab log entry: `CN(C)CCn1c2c3ccccc3ccc2c2oc(=O)c3ccccc3c21` — outcome as called in the assay?
# output active

---

Assay: NCI Yeast Anticancer Drug Screen. Data for the rad14 strain (AID 159);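 note: 0% = growth of vehicle-treated control cultures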
Conditions: S. cerevisiae rad14 strain growth inhibition; at 1.2 µM; active compounds read high
This is part of a sample that, as a whole, favours compounds with a hit. Of some 79,000 tested, about 15% had one in any assay. The source made the active and inactive calls. Cut-off read from the data, not from the text of the source: active = growth inhibition above about 70%; inactive = the rest.
Exercise: state measured growth inhibition for each of the compounds provided.

Solved cases (5 shown):
[
  {
    "compound": "C=C(CN(C)C)C(=O)c1cc(C)ccc1C",
    "growth inhibition": "9% (inactive)"
  },
  {
    "compound": "COC(=O)CSSCc1ccc([N+](=O)[O-])cc1",
    "growth inhibition": "0% (inactive)"
  },
  {
    "compound": "COc1ccccc1N=NC(C(=O)c1ccccc1)C(=O)c1ccccc1",
    "growth inhibition": "-33% (inactive)"
  },
  {
    "compound": "Nc1ccn(C2OC(CO)C3[O][Sn]([c]4ccccc4)([c]4ccccc4)[O]C32)c(=O)n1 (stereo unspecified)",
    "growth inhibition": "1% (inactive)"
  },
  {
    "compound": "CC(=O)N/N=C/C(C)(C)C(C)(C)/C=N/NC(C)=O",
    "growth inhibition": "3% (inactive)"
  }
]

// for each compound below, give its growth inhibition
1. Cc1ccc2ccc3cccc4ccc1c2c34
2. CC(=O)Oc1cc(-c2cc(OC(C)=O)c(OC(C)=O)c3ccccc23)c2ccccc2c1OC(C)=O
3. O=C1Nc2ccccc2/C1=C/COc1ccccc1

# output
1. 1% (inactive)
2. 1% (inactive)
3. 0% (inactive)

// for each compound below, give its growth inhibition
1. O=C1C(Nc2ccccc2)=C(Oc2ccccc2)C(=O)c2ccccc21
2. CC(C)C1=CCC2C(=C1)CCC1C(C)(C(=O)O)CCCC21C (stereo unspecified) (tested in a mixture with another compound)
3. Cc1cccc2c(C(O)CBr)cc(-c3ccc(Cl)cc3)nc12 (stereo unspecified)

# output
13% (inactive)
13% (inactive)
-4% (inactive)

---

Assay: NCI Yeast Anticancer Drug Screen. Data for the cln2 rad14 strain (AID 165);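 note: 0% = growth equal to vehicle treated cultures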
Conditions: S. cerevisiae cln2 rad14 strain, at 50.0 µM
Experimental: Growth inhibition of yeast strains with defined genetic alterations is measured as a screen for potential anti-cancer activity. Selected strains with alterations in DNA damage repair or cell cycle control were exposed to compounds and growth inhibition was measured relative to vehicle treated controls. The strain used in this assay is cln2 rad14
Compounds without any hit were thinned out: in the full panel of roughly 79,000, 15% have a hit. Calls of active or inactive are those of the source. Rule as the data show it: active = growth inhibition above about 70%; inactive = the rest.
Your reply should match one of these outcome classes. True (active), False (inactive)

[
  {
    "molecule": "CCNc1nnc(CSc2nc(-c3ccccc3)c(-c3ccccc3)[nH]2)s1",
    "label": "True"
  },
  {
    "molecule": "O=C(Nc1ccccc1)OCCc1ccc(Cl)c(Cl)c1",
    "label": "True"
  },
  {
    "molecule": "NCCNc1ccc(NCCN)c2c1C(=O)c1c(O)ccc(O)c1C2=O",
    "label": "False"
  },
  {
    "molecule": "Cc1ccc(N)c(S)c1",
    "label": "False"
  },
  {
    "molecule": "C=CCC1=C(C)C(OC(=O)/C=C/c2ccccc2)CC1=O (stereo unspecified)",
    "label": "False"
  }
]

Now for another entry.
# input Lab log entry: `c1ccc2c(c1)sc1nc3ccncc3nc12` — outcome as called in the assay?
# output False
